Assay: Critical micelle concentration (CMC) in seawater
Format: physicochemical
measured quantity: CMC (mol/L)

>>> reading("CCCCCCCC/C=C\\CCCCCCCCCCCC(=O)NCCC[N+](C)(C)CC(O)COC(=O)C(F)(F)F.[Cl-] (stereo not shown)")
"1.08e-05"
>>> reading("CCCCCCCC/C=C\\CCCCCCCCCCCC(=O)NCCC[N+](C)(C)CC(O)COC(C)=O.[Cl-] (stereo not shown)")
"1.09e-05"
>>> reading("CCCCCCCC/C=C\\CCCCCCCCCCCC(=O)NCCC[N+](C)(C)CC(O)COC(=O)CC.[Cl-] (stereo not shown)")
"1.25e-05"
>>> reading("CCCCCCCC/C=C\\CCCCCCCCCCCC(=O)NCCC[N+](C)(C)CC(O)CO.[Cl-] (stereo not shown)")
"9.58e-06"

----------
IFT 2000 mg/L for assorted compounds
Assay: Interfacial tension (IFT) of surfactants in seawater
Format: physicochemical
Details: surfactant 2000 mg/L

Here's what some known entries look like.
>>> reading("CCCCCCCC/C=C\\CCCCCCCCCCCC(=O)NCCC[N+](C)(C)CC(O)COC(=O)CC.[Cl-] (stereo not shown)")
"4.2 × 10^−2 mN/m"
>>> reading("CCCCCCCC/C=C\\CCCCCCCCCCCC(=O)NCCC[N+](C)(C)CC(O)CO.[Cl-] (stereo not shown)")
"1.1 × 10^−3 mN/m"
>>> reading("CCCCCCCC/C=C\\CCCCCCCCCCCC(=O)NCCC[N+](C)(C)CC(O)COC(C)=O.[Cl-] (stereo not shown)")
"2.37 × 10^−3 mN/m"

Query block: May I ask what IFT 2000 mg/L has been recorded for CCCCCCCC/C=C\CCCCCCCCCCCC(=O)NCCC[N+](C)(C)CC(O)COC(=O)C(F)(F)F.[Cl-] (stereo not shown) ?
Result block: 7.12 × 10^−3 mN/m

----------
Assay: Interfacial tension (IFT) of surfactants in seawater
Type: physicochemical
Conditions: surfactant 1000 mg/L
IFT 1000 mg/L for assorted compounds

Query block: May I ask what IFT 1000 mg/L has been recorded for CCCCCCCC/C=C\CCCCCCCCCCCC(=O)NCCC[N+](C)(C)CC(O)CO.[Cl-] (stereo not shown) [C22APDAC] ?
Result block: 1.21 × 10^−4 mN/m

Query block: Entry to check: CCCCCCCC/C=C\CCCCCCCCCCCC(=O)NCCC[N+](C)(C)CC(O)COC(C)=O.[Cl-] (stereo not shown) [C22APHAAC]
Result block: 4.83 × 10^−3 mN/m

Query block: Entry to check: CCCCCCCC/C=C\CCCCCCCCCCCC(=O)NCCC[N+](C)(C)CC(O)COC(=O)CC.[Cl-] (stereo not shown) [C22APHPAC]
Result block: 7 × 10^−3 mN/m

Query block: Entry to check: CCCCCCCC/C=C\CCCCCCCCCCCC(=O)NCCC[N+](C)(C)CC(O)COC(=O)C(F)(F)F.[Cl-] (stereo not shown) [C22APHFAC]
Result block: 1.87 × 10^−2 mN/m
